Apparent Pka values by entry
- PROTOCOL NOTES: Apparent pKa of LNP formulations, TNS fluorescence assay
- Assay type: physicochemical
- CONDITIONS USED: LNP cationic lipid/DSPC/cholesterol/DMG-PEG 50/10/38.5/1.5 mol %
RECORDED ENDPOINT: Apparent Pka

>>> measured_value("CCCCCCCCC(CCCCCCCC)COC(=O)CCCCCN(CCO)CCN(CCCCCC(=O)OCC(CCCCCCCC)CCCCCCCC)Cc1ccccc1")
5.802
>>> measured_value("CCCCCCCCC(CCCCCCCC)COC(=O)CCCCCN(CCNc1c(N(C)C)c(=O)c1=O)CCN(CCCCCC(=O)OCC(CCCCCCCC)CCCCCCCC)C1CCC1")
6.126
>>> measured_value("CCCCCCCCC(CCCCCCCC)COC(=O)CCCCCN(CCO)CCN(CCCCCC(=O)OCC(CCCCCCCC)CCCCCCCC)Cc1ccncc1")
6.988
>>> measured_value("CCCCCCCCC(CCCCCCCC)CNC(=O)CCCCCN(CC=C(C)C)CCN(CCO)CCCCCC(=O)OCC(CCCCCCCC)CCCCCCCC")
6.583
>>> measured_value("CCCCCCCCC(CCCCCCCC)CC(=O)NCCCCCN(CCN(CCO)CCCCCOC(=O)CC(CCCCCCCC)CCCCCCCC)C1CCCC1")
6.633
>>> measured_value("CCCCCCCCC(CCCCCCCC)COC(=O)CCCCCN(CCO)CCN(CCCCCC(=O)OCC(CCCCCCCC)CCCCCCCC)CC1CCCC1")
5.843

---

- PROTOCOL NOTES: Encapsulation efficiency of lipid nanoparticles, Quant-it Ribogreen RNA assay
- Type: physicochemical
- CONDITIONS USED: LNP of lipid/DSPC/cholesterol/PEG-lipid 50:10:38.5:1.5 encapsulating hEPO mRNA
Encapsulation Efficiency values by entry
RECORDED ENDPOINT: Encapsulation Efficiency (%)

>>> measured_value("CCCCCCCCC(CCCCCC)CNC(=O)CCCCN(CCO)CCN(CCCCC(COC(=O)CCCCCCC)COC(=O)CCCCCCC)C1CCCCCC1 (stereo not drawn)")
92.04
>>> measured_value("CCCCCCCCC(CCCCCCCC)COC(=O)CCCCCN(CCO)CCN(CCCCCC(=O)OCC(CCCCCCCC)CCCCCCCC)C1CCC(F)(F)CC1")
93.17
>>> measured_value("CCCCCCCCC(CCCCCCCC)CNC(=O)CCCCCN(CCN(CCCO)CCCCCC(=O)OCC(CCCCCCCC)CCCCCCCC)C1CCC1")
92.30

---

- PROTOCOL NOTES: Encapsulation efficiency of lipid nanoparticles, Quant-it Ribogreen RNA assay
- Format: physicochemical
- CONDITIONS USED: LNP of lipid/DSPC/cholesterol/PEG-lipid 50:10:38.5:1.5 encapsulating hEPO mRNA
Each entry gets -1 if its Encapsulation Efficiency stays under 90%, and 1 if its Encapsulation Efficiency is 90% or above.

>>> answer_label("CCCCCCCCC(CCCCCC)CNC(=O)CCCCCN(CCOCCO)CCN(CCCCC(COC(=O)CCCCCCC)COC(=O)CCCCCCC)C1CCCC1 (stereo not shown) [Compound 205]")
-1
>>> answer_label("CCCCCCCCC(CCCCCCCC)CC(=O)NCCCCCN(CCN(CCO)CCCCCOC(=O)CC(CCCCCCCC)CCCCCCCC)C1CCC1 [Compound 61]")
1
>>> answer_label("CCCCCCCC(=O)OCC(CCCCN(CCO)CCN(CCCCC(COC(=O)CCCCCCC)COC(=O)CCCCCCC)C1CCCCCC1)COC(=O)CCCCCCC [Compound 160]")
-1
>>> answer_label("CCCCCCCCC(CCCCCCCC)CNC(=O)CCCCCN(CC=C(C)C)CCN(CCO)CCCCCC(=O)OCC(CCCCCCCC)CCCCCCCC [Compound 121]")
1
>>> answer_label("CCCCCCCCC(CCCCCC)COC(=O)CCCCCN(CCCCN(CCO)CCCCC(COC(=O)CCCCCCC)COC(=O)CCCCCCC)C1CCCCCC1 (stereo not shown) [Compound 193]")
-1
>>> answer_label("CCCCCCCCC(CCCCCCCC)COC(=O)CCOCCN(CCO)CCN(CCOCCC(=O)OCC(CCCCCCCC)CCCCCCCC)C1CCC1 [Compound 112]")
1
>>> answer_label("CCCCCCCCC(CCCCCCCC)CNC(=O)CCCCCN(CCO)CCN(CCCCCC(=O)OCC(CCCCCCCC)CCCCCCCC)C1CCCC1 [Compound 16]")
1
>>> answer_label("CCCCCCCCC(CCCCCCCC)COC(=O)CCCCCN(CCO)CCN(CC=C(C)C)CCOCCC(=O)OCC(CCCCCCCC)CCCCCCCC [Compound 123]")
1
>>> answer_label("CCCCCCCCC(CCCCCCCC)COC(=O)CCCCCN(CCO)CCN(CCCCCC(=O)OCC(CCCCCCCC)CCCCCCCC)Cc1ccncc1 [Compound 37]")
-1
>>> answer_label("CCCCCCCCCCCOC(=O)CCCCCN(CCN(CCO)CCCCCOC(=O)N(CCCCCCCC)CCCCCCCC)C1CCCCC1 [Compound 99]")
-1
>>> answer_label("CCCCCCCCC(CCCCCC)CNC(=O)CCCCCN(CCOCCO)CCN(CCCCC(COC(=O)CCCCCCC)COC(=O)CCCCCCC)C1CCCCC1 (stereo not shown) [Compound 206]")
-1
>>> answer_label("CCCCCCCCC(CCCCCC)CNC(=O)CCCCCN(CCCCN(CCO)CCCCC(COC(=O)CCCCCCC)COC(=O)CCCCCCC)C1CC1 (stereo not shown) [Compound 195]")
-1
>>> answer_label("CCCCCCCCC(CCCCCCCC)COC(=O)CCCCCN(CCO)CCN(CCCCCC(=O)OCC(CCCCCCCC)CCCCCCCC)C1CC(OC)C1 (stereo not shown) [Compound 67]")
1
>>> answer_label("CCCCCCCCC(CCCCCC)COC(=O)CCCCCN(CC)CCN(CCO)CCCCC(COC(=O)CCCCCCC)COC(=O)CCCCCCC (stereo not shown) [Compound 157]")
1
>>> answer_label("CCCCCCCCC(CCCCCCCC)COC(=O)OCCCCCN(CCO)CCN(CCCCCNC(=O)CC(CCCCCC)CCCCCCCC)C1CCCCCC1 (stereo not shown) [Compound 153]")
1
>>> answer_label("CCCCCCCCC(CCCCCCCC)CNC(=O)CCCCCN1CCC(N(CCO)CCCCCC(=O)OCC(CCCCCCCC)CCCCCCCC)CC1 [Compound 171]")
1
>>> answer_label("CCCCCCCCC(CCCCCCCC)COC(=O)CCCCCN(CCCCN(CCO)CCCCC(COC(=O)CCCCCCC)COC(=O)CCCCCCC)C1CCC1 [Compound 220]")
1

---

size (nm) values by entry
- PROTOCOL NOTES: Lipid nanoparticle size and polydispersity by dynamic light scattering
- Format: physicochemical
- CONDITIONS USED: LNP of lipid/DSPC/cholesterol/PEG-lipid 50:10:38.5:1.5 encapsulating hEPO mRNA
RECORDED ENDPOINT: size (nm)

>>> measured_value("CCCCCCCCC(CCCCCCCC)CNC(=O)CCCCCN(CCCCN(CCO)CCCCC(COC(=O)CCCCCCC)COC(=O)CCCCCCC)C1CCC1")
72.88
>>> measured_value("CCCCCCCCC(CCCCCC)CNC(=O)CCCCCN(CCO)CCN(CCCCC(COC(=O)CCCCCCC)COC(=O)CCCCCCC)C1CCCC1 (stereo not shown)")
81.24
>>> measured_value("CCCCCCCCC(CCCCCCCC)COC(=O)CCCCCN(CCO)CCN(CCCCCC(=O)OCC(CCCCCCCC)CCCCCCCC)C1CC(OC)C1 (stereo not shown)")
75.57
>>> measured_value("CCCCCCCCC(CCCCCCCC)CC(=O)NCCCCCN(CCN(CCO)CCCCCOC(=O)CC(CCCCCCCC)CCCCCCCC)C1CCCCCC1")
67.96
>>> measured_value("CCCCCCCCC(CCCCCCCC)COC(=O)CCCCCN(CCO)CCN(CCCCCC(=O)OCC(CCCCCCCC)CCCCCCCC)C1CCC(C)(C)CC1")
54.55
>>> measured_value("CCCCCCCCC(CCCCCC)CNC(=O)CCCCCN(CC)CCN(CCO)CCCCC(COC(=O)CCCCCCC)COC(=O)CCCCCCC (stereo not shown)")
77.72
>>> measured_value("CCCCCCCCCOC(=O)CCCCCN(CCN(CCO)CCCCCC(=O)OCC(CCCCCCCC)CCCCCCCC)C1CCCCC1")
77.17
>>> measured_value("CCCCCCCCC(CCCCCC)C(=O)OCCCCCCN(CCO)CCN(CCCCCCOC(=O)C(CCCCCC)CCCCCCCC)C1CCC1 (stereo not shown)")
60.99
>>> measured_value("CCCCCCCCC(CCCCCC)CNC(=O)CCCCCCN(CCO)CCN(CCCCC(COC(=O)CCCCCCC)COC(=O)CCCCCCC)C1CCCCC1 (stereo not shown)")
73.66
>>> measured_value("CCCCCCCCCCCC(=O)OCCCCCN(CCN(CCO)CCCCCNC(=O)CC(CCCCCCCC)CCCCCCCC)C1CCCCC1")
70.3
>>> measured_value("CCCCCCCC(=O)OCC(CCCCN(CCO)CCCCN(CCCCC(COC(=O)CCCCCCC)COC(=O)CCCCCCC)C1CCCC1)COC(=O)CCCCCCC")
119.3
>>> measured_value("CCCCCCCCC(CCCCCCCC)COC(=O)CCCCCN(CCO)CCN(CCCCCC(=O)OCC(CCCCCCCC)CCCCCCCC)C1CCC1")
70.21
>>> measured_value("CCCCCCCCC(CCCCCCCC)COC(=O)CCCCCN(CCO)CCN(CCCCC)CCCCCC(=O)OCC(CCCCCCCC)CCCCCCCC")
59.55

All values here come from patent US20230348362A1.
